Just for reference, PubChem BioAssay (NCI) is where these values come from.

system: NCI-H522 lung; assay: NCI-60 one-dose screen, 48 h (100 = growth as untreated, 0 = no growth, -100 = all killed); conditions: 10 µM unless noted
About 83,000 compounds went through this panel and 20% of them were active in at least one assay; those are over-represented in the sample as a whole.
// boundary case: growth equal to 70% maps to n; strictly smaller maps to y

[
  {
    "molecule": "N#Cc1c(-c2cccs2)cc(-c2cnccn2)nc1SCC(=O)N/N=C/c1cccs1",
    "answer_label": "n"
  },
  {
    "molecule": "CCOC(=O)c1cnc2c(-c3ccc(Cl)c(Cl)c3)cnn2c1",
    "answer_label": "y"
  },
  {
    "molecule": "Cc1ccc(C)c(NC2=C(Cl)C(=O)c3nc(C)ccc3C2=O)c1",
    "answer_label": "y"
  }
]

In the record for CC(Nc1ncnc2ccc(-c3cnc4cnccn34)cc12)c1ccccc1 (stereo unspecified) , is growth less than 70%?
y

In the record for CC1(C)CC[C@]23CC[C@]4(C)[C@H](CC[C@@H]5[C@@]6(C)CC[C@H](N)C(C)(C)[C@@H]6CC[C@]54C)[C@H]2[C@H]1OC3 , is growth less than 70%?
n

In the record for Cc1ccc(-c2nc(SCC(=O)c3ccccc3)nc(Nc3ccc(S(N)(=O)=O)cc3)c2C#N)cc1 , is growth less than 70%?
n

In the record for O=C(CCCCCCN1CC(=O)N2[C@@H](c3cccs3)c3[nH]c4ccccc4c3C[C@H]2C1=O)NO , is growth less than 70%?
y

In the record for C#Cc1cc(OC)c(C(=O)Nc2ccc(F)cc2C(=O)Nc2cccc(S(=O)(=O)C(F)(F)F)c2)cn1 , is growth less than 70%?
y
